biological target: T1, C8 acylated human ghrelin (1-28) (human, n-octanoyl group on the serine at position three (Ser3)); experiment: KinExA solution equilibrium; constant Fab, ghrelin titrated, free Fab captured on biotin-C8-ghrelin streptavidin beads
T1 construct: 28-residue peptide hormone; In the first KinExA experiment a biotinylated form was on the beads and the unlabelled peptide was titrated in solution; also called Human C8 ghrelin; human C8 acylated ghrelin (1-28)
T1 sequence (peptide, as listed by the source): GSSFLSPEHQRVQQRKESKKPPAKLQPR
recorded metric: pKd
Bear in mind: pKd is minus log10 of a mol/L concentration; give just that figure.

Q: Could you share which pKd value was measured for Humanized, affinity matured C2 anti-ghrelin Fab 7a1 (Fab, V domains shown, Fab; The constant domains are not described for this clone) VH: QVQLVQSGAEVKKPGASVKVSCKATGYIFTGYWIEWVRQAPGQGLEWMGDILPGSGSPNYNEKFKGRVTMTTDTSTSTAYMELRSLRSDDTAVYYCARYPIFRPRTERIAYWGQGTLVTVSS VL: DIVMTQSPDSLAVSLGERATINCRASKSVSLLGYSYMHWYQQKPGQPPKLLIYFASNLESGVPDRFSGSGSGTDFTLTISSLQAEDVAVYYCQHSVEEPYTFGQGTKLEIK ?
Result: 11.38

Q: # get_value(readout='pKd', item= Humanized, affinity matured C2 anti-ghrelin Fab 7b2 (Fab, V domains shown, Fab; The constant domains are not described) VH: QVQLVQSGAEVKKPGASVKVSCKATGYIFTGYWIEWVRQAPGQGLEWMGDILPGSGSPNYNEKFKGRVTMTTDTSTSTAYMELRSLRSDDTAVYYCARYPIFRLRTERIAEWGQGTLVTVSS VL: DIVMTQSPDSLAVSLGERATINCRASKSVSLLGYSYMHWYQQKPGQPPKLLIYFASNLESGVPDRFSGSGSGTDFTLTISSLQAEDVAVYYCQHSIEEPYTFGQGTKLEIK )
Result: 10.60

Q: For C2 chimeric Fab (heavy and light chain variable regions of C2 murine Fab 1111 fused to human CH1 and CL domains) (Fab, V domains shown) VH: EIQLQQSGAELMKPGASVKLSCKATGYIFTGYWIEWVKQRPGHGLEWIGEILPGSGSTNYNEKFKGKATFTADTSSNTANMQLSSLTTEDSAIYYCARYPQFRLRRERIAYWGQGTLVTVSV VL: DLVLTQSPASLAVSLGQRATISCRASKSVSTSGYSYMHWYQQKPGQPPKLLIYLASNLESGVPARFSGSGSGTDFTLNIHPVEEEDAATYYCQHSRELPYTFGAGTKLELKR , what is its reported pKd?
Result: 8.96

Value source: patent US20080118498A1
